From: patent US9315490B2

Target: human PDE4B1 (Homo sapiens, UniProt Q07343)
Construct: host or cells: Sf9 cells
Sequence (Q07343 whole entry): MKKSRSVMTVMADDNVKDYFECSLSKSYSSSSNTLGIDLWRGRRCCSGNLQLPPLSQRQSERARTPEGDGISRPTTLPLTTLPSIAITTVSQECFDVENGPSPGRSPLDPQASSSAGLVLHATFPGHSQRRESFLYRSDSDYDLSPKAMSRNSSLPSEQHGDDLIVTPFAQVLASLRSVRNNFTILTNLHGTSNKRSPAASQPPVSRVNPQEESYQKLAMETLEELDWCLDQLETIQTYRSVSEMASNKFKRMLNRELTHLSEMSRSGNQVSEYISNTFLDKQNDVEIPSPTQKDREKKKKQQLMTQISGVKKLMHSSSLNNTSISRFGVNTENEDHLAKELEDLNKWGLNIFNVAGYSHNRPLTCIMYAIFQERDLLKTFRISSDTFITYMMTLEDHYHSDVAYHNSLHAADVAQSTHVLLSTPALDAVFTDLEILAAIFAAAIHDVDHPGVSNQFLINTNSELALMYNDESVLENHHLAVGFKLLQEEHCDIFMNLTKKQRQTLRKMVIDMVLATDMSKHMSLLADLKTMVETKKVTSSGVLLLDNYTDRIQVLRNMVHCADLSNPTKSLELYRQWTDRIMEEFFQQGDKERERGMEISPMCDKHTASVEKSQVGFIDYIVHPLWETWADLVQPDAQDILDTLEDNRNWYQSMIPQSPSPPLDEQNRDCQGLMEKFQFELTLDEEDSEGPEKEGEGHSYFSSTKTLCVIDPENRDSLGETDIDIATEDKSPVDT
Experiment: cAMP HTRF assay to determine the activity of hPDE4B1
Format: biochemical
Details: inhibition of PDE4B at a test concentration of 1 μM
# inhibition at 1 µM listing for each entry below
Give the value, in units of %, as a plain number.

# example entries with known answers
molecule: COC[C@H]1CCCN1C(=O)c1ccc2c([S+](C)[O-])cn(-c3ncc(-c4ccccc4F)cn3)c2c1 (some centres unmarked) [Example 77]
measValue: 67
//
molecule: CS(=O)(=O)c1cn(-c2ncc(-c3cc(C#N)ccc3F)cn2)c2cc(C(=O)N3CCNCC3)ccc12 [Example 26]
measValue: 41
//
molecule: CS(=O)(=O)c1cn(-c2ncc(-c3ccccc3F)cn2)c2cc(C(=O)N3C[C@@H]4C[C@H]3CN4)ccc12 [Example 239]
measValue: 78
//
molecule: CS(=O)(=O)c1cn(-c2ncc(-c3ccccc3F)cn2)c2cc(C(=O)N3CC[C@@H](N)C3)ccc12 [Example 69]
measValue: 95

Request: Retrieve inhibition at 1 µM on human PDE4B1 (Homo sapiens, UniProt Q07343); query COC[C@@H]1CCCN1C(=O)c1ccc2c([S+](C)[O-])cn(-c3ncc(-c4ccccc4F)cn3)c2c1 (some centres unmarked) [Example 71]
Result: 63

Request: Retrieve inhibition at 1 µM on human PDE4B1 (Homo sapiens, UniProt Q07343); query CCOC(=O)C1CCN(C(=O)c2ccc3c([S+](C)[O-])cn(-c4ncc(-c5ccccc5F)cn4)c3c2)CC1 (centres unmarked) [Example 393]
Result: 10
